Experimental Target: T1, BHP2 (pro-survival Bcl-2 homolog from Geodia cydonium), residues 18-200 (Geodia cydonium, UniProt Q967D2 18-200)
T1 construct: BHP2, Geodia cydonium, Uniprot Q967D2, residues 18-200; codon-optimized synthetic cDNA; also called recombinant BHP2; source: E. coli BL21 (DE3) star, purified (Glutathione Sepharose 4B, HRV 3C protease cleavage on column, Superdex S200 SEC)
T1 sequence (looked up): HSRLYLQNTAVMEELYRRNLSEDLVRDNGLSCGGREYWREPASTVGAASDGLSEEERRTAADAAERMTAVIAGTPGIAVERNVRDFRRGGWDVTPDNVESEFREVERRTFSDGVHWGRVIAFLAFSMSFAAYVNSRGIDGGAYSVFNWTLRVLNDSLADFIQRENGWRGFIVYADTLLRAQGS
Assay Procedure: ITC; BH3 peptide (200 μM) titrated into BHP2 (20 μM), 19 injections of 2.0 μl, MicroCal iTC200, 25 °C, 25 mM HEPES pH 7.5, 150 mM NaCl; triplicate
Condition Parameters: both partners purified
Property Name: Kd (nM)

INSERT INTO results (binder, property_name, assay_value) VALUES
  ('ALASSMASEVGRRLAEFGDQVDGQFYQE (peptide, UniProt Q1RPT5 62-89, looked up, LB-Bak-2, Lubomirskia baicalensis, Uniprot Q1RPT5, BH3 motif, residues 62-89; also called LB-Bak-2 BH3 motif; LB-Bak-2 BH3 domain; source: synthetic peptide (GenScript), purified to 95%) [LB-Bak-2 BH3 peptide (residues 62-89)]', 'Kd', 65);
